assay: xn = mol fraction of the nth substance listed; conditions: 323 K; 101 kPa; Liquid; Vibrating tube method; x2 = 0.667
measured_parameter: mass density (kg/m3)
Numbers only here, please. The scale is kg/m3.

| compound | units_symbol | experimental_value |
| --- | --- | --- |
| CCCCCCCC[N+](CCCCCCCC)(CCCCCCCC)CCCCCCCC.[Br-] [tetraoctylammonium bromide] + CCCCCCCCCC(=O)O | kg/m3 | 913.2 |
| CCN(CC)CC(=O)Nc1c(C)cccc1C [2-(diethylamino)-N-(2,6-dimethylphenyl)acetamide] + CCCCCCCCCCCC(=O)O | kg/m3 | 925.55 |
| CCN(CC)CC(=O)Nc1c(C)cccc1C [2-(diethylamino)-N-(2,6-dimethylphenyl)acetamide] + Cc1ccc(C(C)C)c(O)c1 | kg/m3 | 966.6 |

Shifting focus to the compound that follows.
## Input Requested field: mass density. Item: CCN(CC)CC(=O)Nc1c(C)cccc1C [2-(diethylamino)-N-(2,6-dimethylphenyl)acetamide] + CCCCCCCCCC(=O)O
## Output 936.4

* * *

test: xn = mol fraction of the nth substance listed; conditions: 298 K; 101 kPa; Liquid; Vibrating tube method; x2 = 0.667
Numbers after ± are expanded uncertainties.
Here, each record is paired with measured mass density data.
Answer format: value, then unit.

# count of solved cases: 3
| compound | experimental_value |
| --- | --- |
| CCN(CC)CC(=O)Nc1c(C)cccc1C [2-(diethylamino)-N-(2,6-dimethylphenyl)acetamide] + Cc1ccc(C(C)C)c(O)c1 | 985.4 ± 0.2 kg/m3 |
| CCCCCCCC[N+](CCCCCCCC)(CCCCCCCC)CCCCCCCC.[Br-] [tetraoctylammonium bromide] + CCCCCCCCCC(=O)O | 929.6 ± 0.8 kg/m3 |
| CCN(CC)CC(=O)Nc1c(C)cccc1C [2-(diethylamino)-N-(2,6-dimethylphenyl)acetamide] + CCCCCCCCCCCC(=O)O | 945.6 ± 0.6 kg/m3 |

Shifting focus to the compound that follows.
## Input Requested field: mass density. Item: CCN(CC)CC(=O)Nc1c(C)cccc1C [2-(diethylamino)-N-(2,6-dimethylphenyl)acetamide] + CCCCCCCCCC(=O)O
## Output 956.8 ± 0.6 kg/m3

* * *

assay: xn = mol fraction of the nth substance listed; conditions: 303 K; 101 kPa; Liquid; Vibrating tube method; x2 = 0.667
± gives the expanded uncertainty stated by the source.
measured_parameter: mass density
Answer format: value, then unit.

| compound | mass density |
| --- | --- |
| CCCCCCCC[N+](CCCCCCCC)(CCCCCCCC)CCCCCCCC.[Br-] [tetraoctylammonium bromide] + CCCCCCCCCC(=O)O | 926.3 ± 0.8 kg/m3 |
| CCN(CC)CC(=O)Nc1c(C)cccc1C [2-(diethylamino)-N-(2,6-dimethylphenyl)acetamide] + Cc1ccc(C(C)C)c(O)c1 | 981.6 ± 0.2 kg/m3 |
| CCN(CC)CC(=O)Nc1c(C)cccc1C [2-(diethylamino)-N-(2,6-dimethylphenyl)acetamide] + CCCCCCCCCC(=O)O | 952.8 ± 0.6 kg/m3 |

## Input Requested field: mass density. Item: CCN(CC)CC(=O)Nc1c(C)cccc1C [2-(diethylamino)-N-(2,6-dimethylphenyl)acetamide] + CCCCCCCCCCCC(=O)O
## Output 941.6 ± 0.6 kg/m3

* * *

Here, each record is paired with measured mass density data.
assay: xn = mol fraction of the nth substance listed; conditions: 313 K; 101 kPa; Liquid; Vibrating tube method; x2 = 0.667
Numbers only here, please. The scale is kg/m3.

| compound | mass density / kg/m3 |
| --- | --- |
| CCN(CC)CC(=O)Nc1c(C)cccc1C [2-(diethylamino)-N-(2,6-dimethylphenyl)acetamide] + CCCCCCCCCC(=O)O | 944.7 |

## Input Requested field: mass density. Item: CCN(CC)CC(=O)Nc1c(C)cccc1C [2-(diethylamino)-N-(2,6-dimethylphenyl)acetamide] + Cc1ccc(C(C)C)c(O)c1
## Output 974.2

## Input Follow-up item: CCCCCCCC[N+](CCCCCCCC)(CCCCCCCC)CCCCCCCC.[Br-] [tetraoctylammonium bromide] + CCCCCCCCCC(=O)O
## Output 919.7

## Input Follow-up item: CCN(CC)CC(=O)Nc1c(C)cccc1C [2-(diethylamino)-N-(2,6-dimethylphenyl)acetamide] + CCCCCCCCCCCC(=O)O
## Output 933.6

* * *

experiment: xn = mol fraction of the nth substance listed; conditions: 308 K; 101 kPa; Liquid; Vibrating tube method; x2 = 0.667
Here, each record is paired with measured mass density data.
Numbers only here, please. The scale is kg/m3.

| molecule | mass density, kg/m3 |
| --- | --- |
| CCN(CC)CC(=O)Nc1c(C)cccc1C [2-(diethylamino)-N-(2,6-dimethylphenyl)acetamide] + CCCCCCCCCC(=O)O | 948.7 |
| CCN(CC)CC(=O)Nc1c(C)cccc1C [2-(diethylamino)-N-(2,6-dimethylphenyl)acetamide] + Cc1ccc(C(C)C)c(O)c1 | 977.9 |
| CCCCCCCC[N+](CCCCCCCC)(CCCCCCCC)CCCCCCCC.[Br-] [tetraoctylammonium bromide] + CCCCCCCCCC(=O)O | 923 |

Shifting focus to the molecule that follows.
## Input Requested field: mass density. Item: CCN(CC)CC(=O)Nc1c(C)cccc1C [2-(diethylamino)-N-(2,6-dimethylphenyl)acetamide] + CCCCCCCCCCCC(=O)O
## Output 937.6

* * *

test: xn = mol fraction of the nth substance listed; conditions: 318 K; 101 kPa; Liquid; Vibrating tube method; x2 = 0.667
Here, each record is paired with measured mass density data.
Numbers only here, please. The scale is kg/m3.

# count of solved cases: 2
| molecule | mass density [kg/m3] |
| --- | --- |
| CCCCCCCC[N+](CCCCCCCC)(CCCCCCCC)CCCCCCCC.[Br-] [tetraoctylammonium bromide] + CCCCCCCCCC(=O)O | 916.5 |
| CCN(CC)CC(=O)Nc1c(C)cccc1C [2-(diethylamino)-N-(2,6-dimethylphenyl)acetamide] + Cc1ccc(C(C)C)c(O)c1 | 970.4 |

## Input Requested field: mass density. Item: CCN(CC)CC(=O)Nc1c(C)cccc1C [2-(diethylamino)-N-(2,6-dimethylphenyl)acetamide] + CCCCCCCCCCCC(=O)O
## Output 929.6

## Input Follow-up item: CCN(CC)CC(=O)Nc1c(C)cccc1C [2-(diethylamino)-N-(2,6-dimethylphenyl)acetamide] + CCCCCCCCCC(=O)O
## Output 940.6

* * *

test: xn = mol fraction of the nth substance listed; settings: 293 K; 101 kPa; Liquid; Vibrating tube method; x2 = 0.667
measured_parameter: mass density (kg/m3)
Numbers only here, please. The scale is kg/m3.

# count of solved cases: 3
| molecule | measured_parameter | units_symbol | experimental_value |
| --- | --- | --- | --- |
| CCN(CC)CC(=O)Nc1c(C)cccc1C [2-(diethylamino)-N-(2,6-dimethylphenyl)acetamide] + CCCCCCCCCC(=O)O | mass density | kg/m3 | 960.9 |
| CCN(CC)CC(=O)Nc1c(C)cccc1C [2-(diethylamino)-N-(2,6-dimethylphenyl)acetamide] + CCCCCCCCCCCC(=O)O | mass density | kg/m3 | 949.6 |
| CCCCCCCC[N+](CCCCCCCC)(CCCCCCCC)CCCCCCCC.[Br-] [tetraoctylammonium bromide] + CCCCCCCCCC(=O)O | mass density | kg/m3 | 932.9 |

## Input Requested field: mass density. Item: CCN(CC)CC(=O)Nc1c(C)cccc1C [2-(diethylamino)-N-(2,6-dimethylphenyl)acetamide] + Cc1ccc(C(C)C)c(O)c1
## Output 989.1
